- MEASUREMENT_TARGET: MBP-FoxP1dN (Mus musculus, UniProt P58462 326-579)
- Sequence: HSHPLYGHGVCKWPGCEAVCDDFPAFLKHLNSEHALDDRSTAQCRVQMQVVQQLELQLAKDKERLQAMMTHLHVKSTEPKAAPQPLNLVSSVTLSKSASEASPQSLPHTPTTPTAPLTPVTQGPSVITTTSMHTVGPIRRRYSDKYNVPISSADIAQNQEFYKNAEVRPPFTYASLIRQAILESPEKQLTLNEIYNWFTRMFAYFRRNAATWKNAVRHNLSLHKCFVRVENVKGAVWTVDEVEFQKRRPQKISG
- EXPERIMENT_NOTES: PD-seq (MBP pull-down with sequencing); 20 mM Tris-HCl pH 7.5, 100 mM NaCl, 1.5 mM MgCl2, 0.4 uM protein, 0.1 uM dsDNA library, 30 min, room temperature, amylose pull-down; high values mean tight binding
- EXPERIMENTAL_SETUP: protein: recombinant; tags: His6-MBP; chain copies: 2; dsDNA, one strand shown
In all, about 16,000 sequences were measured (“rpm ratio (pull-down/input)”: median about 0.94, highest 2% from about 1.7 on). Many of the other results were omitted from the sample, so the highest values are more common in it than they were.
Please provide measured binding signal for the entries that follow.

Ask | Please give the measured binding signal for this sequence: GATGATTGTTCTCCCAGCTGATGAATTGTTTTCATCGAGTAAACAAATTTTCCTAATCTTTCTGTTCAAGCGCCATCTAC
Reply | 1.96 RPM ratio (pull-down/input)

Ask | Please give the measured binding signal for this sequence: GATGATTGTTCTCCCAGCTGATGAATTTCGAATCTCGAGTAAACAAATTTTCCTAATCTTTCTGTTCAAGCGCCATCTAC
Reply | 0.83 RPM ratio (pull-down/input)

Ask | Please give the measured binding signal for this sequence: GATGATTGTTCTCCCAGCTGATGAATTGGCGATTTCGAGTAAACAAATTTTCCTAATCTTTCTGTTCAAGCGCCATCTAC
Reply | 0.865 RPM ratio (pull-down/input)

Ask | Please give the measured binding signal for this sequence: GATGATTGTTCTCCCAGCTGATGAATTGACGCGGTCGAGTAAACAAATTTTCCTAATCTTTCTGTTCAAGCGCCATCTAC
Reply | 1.01 RPM ratio (pull-down/input)

Ask | Please give the measured binding signal for this sequence: GATGATTGTTCTCCCAGCTGATGAATTATAGTAGTCGAGTAAACAAATTTTCCTAATCTTTCTGTTCAAGCGCCATCTAC
Reply | 0.985 RPM ratio (pull-down/input)

Ask | Please give the measured binding signal for this sequence: GATGATTGTTCTCCCAGCTGATGAATTGCCGTAATCGAGTAAACAAATTTTCCTAATCTTTCTGTTCAAGCGCCATCTAC
Reply | 1.39 RPM ratio (pull-down/input)

Ask | Please give the measured binding signal for this sequence: GATGATTGTTCTCCCAGCTGATGAATTTGTTTCCTCGAGTAAACAAATTTTCCTAATCTTTCTGTTCAAGCGCCATCTAC
Reply | 1.49 RPM ratio (pull-down/input)

Ask | Please give the measured binding signal for this sequence: GATGATTGTTCTCCCAGCTGATGAATTGTTTGCCTCGAGTAAACAAATTTTCCTAATCTTTCTGTTCAAGCGCCATCTAC
Reply | 1.96 RPM ratio (pull-down/input)

Ask | Please give the measured binding signal for this sequence: GATGATTGTTCTCCCAGCTGATGAATTGCCCCCATCGAGTAAACAAATTTTCCTAATCTTTCTGTTCAAGCGCCATCTAC
Reply | 0.972 RPM ratio (pull-down/input)
